assay: qHTS Assay for Inhibitors of Hepatitis C Virus (HCV); details: Huh7.5.1 HCVcc-Cre infection, luciferase reporter, 44 h; series mostly up to 41.8 µM
The campaign covered roughly 340,000 compounds. About 12,000 (3.5%) were called active. Inconclusive results (about 18%) are left out. The call rests on the fitted dose curve; in most records, active means well fitted inhibition curve with a large enough effect; inconclusive means small, poorly fitted or top-dose-only effect, or another doubt; inactive means no such curve, though single readings can be large or run the other way. The sample as a whole holds a higher share of actives than the screen did.
Outcomes: active, inactive

COMPOUND	CLASS
O=C(COC(=O)c1ccc(Br)o1)NC12CC3CC(CC(C3)C1)C2	inactive
C/C(=N\Nc1ccc(Cl)nn1)c1ccccc1O	active
CC(C)=C(NC(=O)c1ccccc1)C(=O)N/N=C(\C)c1ccccc1O	inactive
Cc1ccc(S(=O)(=O)N(Cc2cc3ccccc3[nH]c2=O)CC2CCCO2)cc1 (stereo not given)	inactive
Cc1nc(N)nc(Cl)c1CCC1OCCO1	inactive
Oc1cccc(/C=N/Nc2ccc(Cl)nn2)c1O	active
CCOc1ccc(S(=O)(=O)N2CCN(C(=O)c3oc4ccccc4c3C)CC2)cc1	inactive
CCCCn1c(N)c(N(CC(C)C)C(=O)C2CSC3(C)CCC(=O)N23)c(=O)[nH]c1=O (stereo not given)	inactive
CCN(Cc1cc2cc(C)ccc2[nH]c1=O)S(=O)(=O)c1ccccc1	active
CC(C)(C)OC(=O)C[C@@H]1C/C=C\C[C@@H](CC(=O)N[C@H](CO)Cc2ccccc2)C(=O)NC[C@@H](c2ccccc2)OC1=O	inactive

====

experiment: qHTS Assay for Inhibitors of Hepatitis C Virus (HCV); conditions: Huh7.5.1 HCVcc-Cre infection, luciferase reporter, 44 h; series mostly up to 41.8 µM
In all, about 340,000 compounds went through this assay and about 12,000 (3.5%) were called active. Inconclusive results (about 18%) are left out. Calls follow the shape of the dose curve; as a rule, active = well fitted inhibition curve with a large enough effect; inconclusive = small, poorly fitted or top-dose-only effect, or another doubt; inactive = no such curve, though single readings can be large or run the other way. The entries come from a sample that favours actives as a whole.
Outcomes: active, inactive

MOLECULE	CLASS
CCCCCCOC(=O)NCC(O)c1ccccc1 (configuration not stated)	inactive
COC1=CC(=O)OC(c2ccc(OC)cc2)C1 (configuration not stated)	inactive
CC(C)(C)n1ncc2c(=O)n(Cc3ccc(Cl)cc3)cnc21	active
O=C(CSc1nc2ccccc2c(=O)n1-c1ccc(F)cc1)NC1CC1	inactive
COc1cccc(N2CC(NC(=O)c3ccc4ccccc4c3)CC2=O)c1 (configuration not stated)	inactive
O=C(COc1ccccc1F)NNC(=O)c1cc(Br)ccc1Cl	inactive
COc1ccc(C2(C)ON(c3ccccc3C(F)(F)F)C2=O)cc1 (configuration not stated)	inactive
CCCn1c(=O)c(-c2ccccc2)c(O)c2ccccc21	inactive
COc1cccc(C(O)c2nc3ccccc3n2C)c1 (configuration not stated)	inactive
CC(=O)Cn1cnc2c(cnn2-c2ccccc2)c1=O	inactive
c1ccc(-c2c[nH]c(-c3ccccc3)c2)cc1	inactive
CCOc1cccc(C(=O)Nc2nnc(-c3cccs3)s2)c1	inactive
O=C(O)c1ccc(Cn2cnc3c(=S)nc[nH]c32)cc1	inactive
CC1O[C@H](OC2C(COC3OC(CO)C(O)[C@H](O)C3O)OC(OC3CC[C@]4(C)C(CC[C@@]5(C)[C@@H]4C=C[C@]46OC[C@@]7(CCC(C)(C)C[C@H]74)C(O)C[C@@]56C)C3(C)C)C(O)C2O)C(O)C(O)C1O (some centres not stated)	inactive
N#Cc1ccc(C(=O)Nc2nc(-c3cccs3)c(C(=O)C(F)(F)F)s2)cc1	active
Cc1cccc(C)c1NC(=O)COC(=O)c1c(C)nn(-c2ccccc2)c1C	inactive
COc1ccc(S(=O)(=O)NC(C)C(=O)N2CCCCCC2)cc1 (configuration not stated)	inactive
Cn1c(=O)c(Sc2ccc(Cl)cc2)c(O)c2ccccc21	inactive
Cn1cc(C2OC(=O)c3ccccc32)c2ccccc21 (configuration not stated)	inactive
O=C(c1ccc(Cl)nc1)N1CCN(S(=O)(=O)c2ccc3c(c2)OCCO3)CC1	inactive
COc1ccc(S(=O)(=O)NCc2ccc(C(=O)N3CCC4(CC3)OCCO4)cc2)cc1	inactive
Cc1cc(C)c(-c2c(O)c3ccccc3n(C)c2=O)c(C)c1	active

====

assay: qHTS Assay for Inhibitors of Hepatitis C Virus (HCV); settings: Huh7.5.1 HCVcc-Cre infection, luciferase reporter, 44 h; series mostly up to 41.8 µM; further: potency means the concentration at half of the fitted maximal effect
In all, about 340,000 compounds went through this assay and about 12,000 (3.5%) were called active. Roughly 18% stayed inconclusive and do not appear here. The sample as a whole holds a higher share of actives than the screen did.

COMPOUND	Potency
CC1CCN(c2ccc([N+](=O)[O-])c(SCCO)c2)CC1	10 µM (active)
CC1(C)C/C(=N/Nc2ccc([N+](=O)[O-])cc2[N+](=O)[O-])C(C)(C)O1	inactive
Cc1cc(C(=O)N/N=C\C(Br)=C\c2ccccc2)c(C)o1	inactive
CC(C)c1cc(C(=O)O)n[nH]1	inactive
COc1ccc(CCNc2ncnc3c2nnn3Cc2ccccc2)cc1	inactive
O=c1c2ccccc2nc2n1C(CSCc1ccccc1)CS2 (stereo unspecified)	14.1 µM (active)
Cc1ccc(S(=O)(=O)CC(=O)Nc2sc(C)c(C)c2C(N)=O)cc1	inactive
CCOC(=O)c1sc(N)c(C#N)c1COC(=O)C1=COCCO1	inactive
CC(C)c1cc(C(=O)N/N=C/C(Br)=C/c2ccccc2)n[nH]1	22.4 µM (active)
Cc1ccc(C)c(C(=O)COC(=O)Cn2[nH]c(=O)c3ccccc3c2=O)c1	inactive
O=[N+]([O-])c1ccc(N2CCSCC2)cc1O	inactive

====

test: qHTS Assay for Inhibitors of Hepatitis C Virus (HCV); details: Huh7.5.1 HCVcc-Cre infection, luciferase reporter, 44 h; series mostly up to 41.8 µM
Screen size: about 340,000 compounds; about 12,000 (3.5%) were called active. Not shown: some 18% with an inconclusive outcome. Calls follow the shape of the dose curve; as a rule, active = well fitted inhibition curve with a large enough effect; inconclusive = small, poorly fitted or top-dose-only effect, or another doubt; inactive = no such curve, though single readings can be large or run the other way. For the sample, actives were picked, then their nearest neighbours and some compounds at random.
Outcomes: true = active, false = inactive

SMILES_INPUT	CLASS
Brc1ccc2nc(N3CCCC3)sc2c1	true
O=C(c1cccc(S(=O)(=O)N2CCCCCC2)c1)N1CCN(Cc2ccccc2)CC1	false
O=C(c1ccc2nc(N3CCOCC3)sc2c1)N1CCN(c2ccc(Cl)cc2)CC1	false
CCOC(=O)C[C@H]1c2ccc(C(F)(F)F)cc2S(=O)(=O)N1c1ccccc1	false
CC(C)(C)NS(=O)(=O)NC(=O)C1=C(N2CCCC2)COC1=O	false
CC1(C)NC(=O)N(CC(=O)N2CCN(S(=O)(=O)c3ccccc3F)CC2)C1=O	false
Cc1cc(NC(=O)c2cc3ccccc3o2)no1	false
COc1ccc(NS(=O)(=O)c2ccc(NC(=O)c3ccc(N(C)S(C)(=O)=O)cc3)cc2)cc1	true
COc1cc(OC)cc(C(=O)Nc2ccc(S(=O)(=O)Nc3cc(C)on3)cc2)c1	false
CCN1CCN(C(=O)N(Cc2ccc(Cl)cc2)S(=O)(=O)c2ccc(C)cc2)CC1	false

====

assay: qHTS Assay for Inhibitors of Hepatitis C Virus (HCV); details: Huh7.5.1 HCVcc-Cre infection, luciferase reporter, 44 h; series mostly up to 41.8 µM
Among all 340,000 compounds or so, about 12,000 (3.5%) were called active. Not shown: some 18% with an inconclusive outcome. Calls come from the whole dose curve; as a rule, active = well fitted inhibition curve with a large enough effect; inconclusive = small, poorly fitted or top-dose-only effect, or another doubt; inactive = no such curve, though single readings can be large or run the other way. The entries come from a sample that favours actives as a whole.
Outcomes: TRUE (active), FALSE (inactive)

COMPOUND	CLASS
CC1CN(Cc2ccco2)C(=S)N(c2ccccc2)C1=O (stereo not given)	FALSE
COc1cccc(N(C(=O)C2COc3ccccc3O2)C(C(=O)NC2CCCCC2)c2ccc(O)cc2)c1 (stereo not given)	FALSE
COc1ccc(C(C(=O)NC2CCCCC2)N(C(=O)c2snc(C(N)=O)c2N)c2ccccc2OC)cc1 (stereo not given)	FALSE
CC(=O)c1c(C)[nH]c(C(=O)COC(=O)CCOc2ccc(C)cc2)c1C	FALSE
Cc1cn(C2CC(O)C(CO)O2)c(=O)n(CCCc2ccccc2)c1=O (stereo not given)	FALSE
COc1ccc(C(C(=O)NC2CCCCC2)N(C(=O)CCl)c2ccccc2Cl)cc1 (stereo not given)	TRUE
O=C(NCCCN1CCOCC1)c1cc(-c2cccc(O)c2)on1	FALSE
O=C(NCCCN1CCOCC1)c1cc(-c2ccc(Cl)cc2)on1	TRUE
CCOc1ccc(C(CCc2ccccc2)NC(=O)c2ccc(OC)c(OC)c2)cc1OCC (stereo not given)	TRUE
COc1ccc(-c2c(C)cc3oc(=O)cc(-c4ccccc4)c3c2C)cc1OC	TRUE

====

assay: qHTS Assay for Inhibitors of Hepatitis C Virus (HCV); details: Huh7.5.1 HCVcc-Cre infection, luciferase reporter, 44 h; series mostly up to 41.8 µM; on activity change, negative = inhibition: on the % scale 0 is the no-effect control and ±100 the full control effect
About 12,000 (3.5%) of roughly 340,000 compounds were called active. Another 18% or so got no clear call; they are omitted. Only a selection was taken, and actives are over-represented in it overall.
activity change, negative = inhibition values by entry
REPORTED_ENDPOINT: activity change, negative = inhibition

COMPOUND	REPORTED_ENDPOINT	RECORDED_RESULT
COC(=O)[C@]1(C)N[C@H](CN(C)C(=O)c2ccc(C(C)(C)C)cc2)[C@@H]2C(=O)N(C)C(=O)[C@@H]21	activity change, negative = inhibition	-14.2% [at 8.37 µM] (inactive)
CCN(CC)C(=O)[C@H]1C[C@H](CC(=O)NCC23CC4CC(CC(C4)C2)C3)C(=O)N2CCc3c([nH]c4cc(CCC(=O)N(C)C)ccc34)[C@]12C	activity change, negative = inhibition	-5.73% [at 8.37 µM] (inactive)
CN(C(=O)c1cccc(NC(=O)Cc2ccc(NC(=O)C3CCN(C(=O)C4CCCCC4)CC3)cc2)c1)C1CCC1	activity change, negative = inhibition	-11.4% [at 8.37 µM] (inactive)
COC(=O)CCCCCN1C(=O)NC(c2ccc(-c3ccccc3)cc2)C(C(=O)OCc2ccccc2)=C1C (configuration not stated)	activity change, negative = inhibition	4.51% [at 8.37 µM] (inactive)
Cc1cc2oc(=O)cc(-c3ccccc3)c2c(C)c1-c1ccc(OC(F)(F)F)cc1	activity change, negative = inhibition	-14.5% [at 8.37 µM] (inactive)
COc1ccc(CNC(=O)C2(CC3CC(c4ccccc4)=NO3)CCN(C(=O)c3cccc(O)c3)CC2)cc1 (configuration not stated)	activity change, negative = inhibition	-11.6% [at 8.37 µM] (inactive)
C[C@H](O)[C@@H]1C(=O)N2CCc3ccc(N4CCOCC4)cc3[C@@H]2C[C@@H]1N(C)C(=O)C(C)(C)C	activity change, negative = inhibition	-22.9% [at 8.37 µM] (inactive)
CC[C@]12c3[nH]c4cc(CCC(=O)N(C)C)ccc4c3CCN1C(=O)[C@@H](CC(=O)NCc1ccco1)C[C@@H]2C(=O)N1CCN(C(=O)c2ccco2)CC1	activity change, negative = inhibition	-1.33% [at 8.37 µM] (inactive)
CC(C)(C)OC(=O)N(Cc1ccccc1)Cc1ccc(OCc2cccc(NC(=O)c3ccccc3)c2)cc1	activity change, negative = inhibition	-4.99% [at 8.37 µM] (inactive)
COc1ccc(/C=C/C(=O)c2ccc(OC)cc2O)cc1	activity change, negative = inhibition	1.23% [at 8.37 µM] (inactive)
CN(c1ccccc1)S(=O)(=O)c1cccc(C(=O)NNC(=O)c2ccncc2)c1	activity change, negative = inhibition	-10.3% [at 8.37 µM] (inactive)
CCOc1ccc(CC(=O)NCCS(=O)(=O)N2CCN(c3ccccc3)CC2)cc1	activity change, negative = inhibition	-0.883% [at 8.37 µM] (inactive)
CCOc1ccc(S(=O)(=O)N2CCN(C(=S)NCC3CCCO3)CC2)cc1 (configuration not stated)	activity change, negative = inhibition	-4.09% [at 8.37 µM] (inactive)
Cc1ccc(C)c(N2CCN(C(=O)CCc3nc4ccccc4[nH]3)CC2)c1	activity change, negative = inhibition	3.71% [at 8.37 µM] (inactive)
CN(C)C(=O)CCc1ccc2c3c([nH]c2c1)[C@]1(CCC2CCCC2)[C@@H](C(=O)N2CCOCC2)C[C@H](CC(=O)NCc2ccco2)C(=O)N1CC3	activity change, negative = inhibition	11% [at 8.37 µM] (inactive)
O=C(NCCSc1ncc(-c2ccccc2)[nH]1)c1ccco1	activity change, negative = inhibition	-7.56% [at 8.37 µM] (inactive)
O=C(NCCS(=O)(=O)N1CCN(c2ccccc2)CC1)c1ccco1	activity change, negative = inhibition	5.8% [at 8.37 µM] (inactive)
